- TEST METHOD NOTES: murine CD8 T cell vesicle adhesion modulation – mouse 2C CD8+ T cells, flow cytometry, primary screen (AID 2052);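 further: values below 100% mean blocked vesicle binding to the CD8+ T cells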
- MEASUREMENT CONTEXT: 2C CD8+ T cell-vesicle binding, at 7 µM, hits give low values
Hit rate of the full screen: of about 330,000 compounds, about 220 (0.067%) were called active. Shown is part of a subset that was picked to be rich in actives.
OBSERVATION TYPE: response (vesicle binding) (%)
Field: numeric (%). Do not append units.

Example entries begin here.
CCSc1nnc(SCC(=O)NNC(=O)c2ccccc2F)s1 = 194
CC(NC(=S)Nc1ccccc1)C1COc2ccccc2O1 (configuration not stated) = 843
O=C(NCc1ccc2c(c1)OCO2)c1ccc(Cl)s1 = 0
COc1ccc(CN(C)C(=S)Nc2ccc(Cl)cc2Cl)cc1 = 367

Incoming: Give reported response (vesicle binding) value for "C/C=C/c1ccc(OCC(=O)NNC(=O)CN(C)S(=O)(=O)c2ccc(C)cc2)c(OC)c1"
Outgoing: 180

Incoming: Give reported response (vesicle binding) value for COc1ccccc1C(=O)NC(CCSC)C(=O)NNC(=O)c1csc(N2CCOCC2)n1 (configuration not stated)
Outgoing: 242

Incoming: Give reported response (vesicle binding) value for "O=C(NCc1ccc2c(c1)OCO2)c1cc2c(s1)CS(=O)(=O)C2"
Outgoing: 576
